# tested_on: UniProtKB B2RXH2
# Sequence (B2RXH2 whole entry): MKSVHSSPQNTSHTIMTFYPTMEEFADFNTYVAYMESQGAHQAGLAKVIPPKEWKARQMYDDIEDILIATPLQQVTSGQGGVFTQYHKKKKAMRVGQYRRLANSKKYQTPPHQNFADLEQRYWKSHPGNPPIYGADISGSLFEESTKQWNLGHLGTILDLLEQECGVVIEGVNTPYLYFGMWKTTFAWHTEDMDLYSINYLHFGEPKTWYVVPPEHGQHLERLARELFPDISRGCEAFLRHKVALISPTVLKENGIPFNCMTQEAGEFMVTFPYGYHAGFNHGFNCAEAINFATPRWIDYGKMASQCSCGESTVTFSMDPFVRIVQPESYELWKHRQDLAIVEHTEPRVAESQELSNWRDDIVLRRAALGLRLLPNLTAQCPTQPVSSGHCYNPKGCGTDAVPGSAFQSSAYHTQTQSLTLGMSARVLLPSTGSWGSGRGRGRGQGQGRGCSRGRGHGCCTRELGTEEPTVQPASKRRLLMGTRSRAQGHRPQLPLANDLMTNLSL
# assay_info: Inhibition of KDM4E (unknown origin) by FDH-coupled spectrophotometric turnover assay
measure: IC50 (µM)
Answer format: numeric, µM implied, no suffix.

Ask | Lab note: record IC50 of "O=C(O)c1ccnc(C(=O)O)c1Nc1ccccc1[N+](=O)[O-]" tested on UniProtKB B2RXH2.
Reply | 56

====

# tested_on: Bifunctional peptidase and arginyl-hydroxylase JMJD5 (Homo sapiens, UniProt Q8N371)
# Sequence (Q8N371 whole entry): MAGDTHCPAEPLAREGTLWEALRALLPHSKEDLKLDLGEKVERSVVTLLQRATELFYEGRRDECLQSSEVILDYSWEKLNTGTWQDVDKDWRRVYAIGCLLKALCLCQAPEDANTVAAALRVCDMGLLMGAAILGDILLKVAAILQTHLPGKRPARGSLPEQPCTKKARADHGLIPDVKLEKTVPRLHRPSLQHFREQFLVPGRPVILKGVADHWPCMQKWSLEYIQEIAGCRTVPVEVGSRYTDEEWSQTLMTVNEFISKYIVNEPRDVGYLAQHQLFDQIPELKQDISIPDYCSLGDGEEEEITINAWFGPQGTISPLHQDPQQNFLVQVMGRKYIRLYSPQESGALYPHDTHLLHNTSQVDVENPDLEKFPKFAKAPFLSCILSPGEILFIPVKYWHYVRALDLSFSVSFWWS
# assay_info: Inhibition of N-terminal his6-tagged-thioredoxin-tagged human recombinant JMJD5 expressed in Escherichia coli using RPS6 as substrate by SPE-MS analysis
measure: IC50

Ask | Lab note: record IC50 of "COc1ccccc1CNc1cnc(C(=O)O)cc1C(=O)O" tested on Bifunctional peptidase and arginyl-hydroxylase JMJD5 (Homo sapiens, UniProt Q8N371).
Reply | 700 nM
